- System Tested: T1, Sla1-2, P32790
- T1 sequence (P32790 60-140, looked up): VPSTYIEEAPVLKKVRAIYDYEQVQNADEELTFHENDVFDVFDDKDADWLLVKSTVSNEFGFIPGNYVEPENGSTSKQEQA
- Experimental Protocol: SPOT array
- Run Conditions: median of control spots 712
Would you mind telling me the reported SPOT intensity of each entry?
Answers are plain numbers.

Before answering, review these 8 worked examples.
>  <Binder>
PLQSKIPMLPSRRTM

>  <SPOT intensity>
14

$$$$
>  <Binder>
FVLRYYILIPHEQWD

>  <SPOT intensity>
3

$$$$
>  <Binder>
YYNRQELALPKRMSS

>  <SPOT intensity>
2

$$$$
>  <Binder>
MTKTPETSPPKRPMG

>  <SPOT intensity>
2

$$$$
>  <Binder>
KTKQQKPAIPQKKSF

>  <SPOT intensity>
0

$$$$
>  <Binder>
NIKVLLNPKLGKPVK

>  <SPOT intensity>
0

$$$$
>  <Binder>
TKIRRRPQQPLTDFT

>  <SPOT intensity>
1

$$$$
>  <Binder>
QRKSLRRPTLSKPAV

>  <SPOT intensity>
3

$$$$

Items follow; give SPOT intensity for each.
1. NFLRLLIGLPSQNEL
2. RSLRKRPTSPSISGS

result:
[0, 1]
